experimental-system: T1, human ACVR2A (human, UniProt P27037 20-135, limits assumed); also: test concentration or dose not given here
T1 construct: coated antigen of the initial ELISA; also called activin receptor, type II A
T1 sequence (P27037 20-135 limits assumed): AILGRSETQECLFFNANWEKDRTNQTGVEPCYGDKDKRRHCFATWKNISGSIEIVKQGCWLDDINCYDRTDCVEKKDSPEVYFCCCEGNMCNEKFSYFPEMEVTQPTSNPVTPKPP
test: ELISA
true means recorded optical density is 3 OD or above; false means it is below 3 OD.

| binder | class-label |
| --- | --- |
| 367_C10 (antibody, V domains shown, Group III) VH: EVQLLESGGGLVQPGGSLRLSCAASGFTFDSYSMNWVRQAPGKGLEWVSGINYNGGYTSYADSVKGRFTISRDNSKNTLYLQMNSLRAEDTAVYYCARGANWHDTALDYWGQGTLVTVSS VL: DIQMTQSPSSLSASVGDRVTITCRASQSIVSYVNWYQQKPGKAPKLLIYAVTSRASGVPSRFSGSGSGTDFTLTISSLQPEDFATYYCQQSYETPLTFGGGTKVEIK | false |
| 367_B01 (antibody, V domains shown, Group III) VH: EVQLLESGGGLVQPGGSLRLSCAASGFTFSSYSMNWVRQAPGKGLEWVAGINYNGGYKGYADSVKGRFTISRDNSKNTLYLQMNSLRAEDTAVYYCARGANWHDTALDYWGQGTLVTVSS VL: DIQMTQSPSSLSASVGDRVTITCRASQSISSYVNWYQQKPGKAPKLVIYAATSRASGVPSRFSGSGSGTDFTLTISSLQPEDFATYYCQQSYSTPLTFGGGTKVEIK | false |
| 368_B09 (antibody, V domains shown, Group III) VH: EVQLLESGGGLVQPGGSLRLSCAASGFTFDSYGMNWVRQAPGKGLEWVSNINYNGGYKGYADSVKGRFTISRDNSKNTLYLQMNSLRAEDTAVYYCARGANWHDTHLDYWGQGTLVTVSS VL: DIQMTQSPSSLSASVGDRVTITCRASQSILSYLNWYQQKPGKAPKLLIYAATSRHSGVPSRFSGSGSGTDFTLTISSLQPEDFATYYCQQSYDTPLTFGGGTKVEIK | false |

Would you kindly look at the next entry?
## Input In plain terms: is recorded optical density at least 3 OD for 374_E10 (antibody, V domains shown, Group III) VH: EVQLLESGGGLVQPGGSLRLSCAASGFTFSSYSMNWVRQAPGKGLEWVSGINYNGGYKSYADSVKGRFTISRDNSKNTLYLQMNSLRAEDTAVYYCARGANWHDTALDYWGQGTLVTVSS VL: DIQMTQSPSSLSASVGDRVTITCRASQSILSYLNWYQQKPGKAPKLLIYAATSRHSGVPSRFSGSGSGTDFTLTISSLQPEDFATYYCQQSYDSPLTFGGGTKVEIK ?
## Output true
